# System: GRK3
# Construct: gene ADRBK2
# experimentalSetup: concentration: 1 μM, replicates: in singlicate; n = 1;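 further: KINOMEscan kinase panel screen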

# compound, %Inh / %
measured = [
    ("O=C(Nc1ccc2c(c1)OCO2)NC1CCN(c2ccnc(Nc3ccc(F)cc3)n2)C1 (stereo not drawn)", 93.7),
    ("Cl.NC(=O)c1cccc(Nc2nccc(Nc3ccc(Oc4cccc(Cl)c4)c(Cl)c3)n2)c1", 18),
    ("O=C(Nc1n[nH]c2cc(-c3cccc(F)c3F)ccc12)C1CC1", 0),
    ("NC(=O)c1nnc2ccccc2c1N", 13),
    ("CCCc1ccc(S(=O)(=O)NC2CCN(c3ccnc(Nc4ccc(F)cc4)n3)C2)cc1 (stereo not drawn)", 33),
    ("COc1ccc(Nc2nccc(NCCNC(=O)Nc3ccccc3F)n2)cc1", 26),
    ("CN1C(=O)C(Nc2ccc(Cl)c(C(=O)O)c2)=C(c2ccc(Cl)cc2)C1=O", 4),
    ("COc1ccc(CNC(=O)NC2CCN(c3ccnc(Nc4cc(OC)c(OC)c(OC)c4)n3)C2)cc1 (stereo not drawn)", 40),
    ("COc1cc2nccc(Nc3ccc(NC(=O)c4ccc(C)cc4)c(O)c3)c2cc1OC.Cl", 29),
]

====

# Test system: RIPK4
# experimentalSetup: concentration: 1 μM, replicates: in singlicate; n = 1

# compound, %Inh / %
records = [
    ("CCn1c(-c2ccccn2)nc2cnccc21 [SB-736398]", 15),
    ("O=C(O)COc1ncnc2cc(-c3ccc4[nH]ncc4c3)sc12", 30),
    ("Cc1ccc(-c2cc(-c3c[nH]nc3-c3ccccn3)ccn2)cc1 [GW684088]", 0),
    ("COC(=O)c1c(-c2ccccc2)c2cc(OC)ccc2c(=O)n1Cc1ccccc1", 4),
    ("CS(=O)(=O)c1ccc(-c2nc3n(c2-c2ccncc2)CCC3)cc1 [SKF-105942]", 100),
    ("Cc1cc(-c2ccc3c(c2)CC[C@@H](N[C@@H](C)c2ccccc2)C3)cnc1N.Cl [GW412617]", 13),
    ("O=C(Nc1ccc2c(c1)OCO2)NC1CCN(c2ccnc(Nc3ccc(F)cc3)n2)C1 (stereo not drawn) [GSK1379724]", 11),
    ("CN1C(=O)C(Nc2ccc(Cl)c(C(=O)O)c2)=C(c2ccc(Cl)cc2)C1=O [SB-404290]", 18),
    ("CC(C)(C)c1ccc(C(=O)Nc2cn3cc(Cl)ccc3n2)cc1", 0),
    ("Cc1c(O)cccc1Nc1ccnc2ccc(C(F)(F)F)cc12.Cl [GW466413]", 0),
    ("Cc1cccc(-c2nc(C)cc(Nc3ccncc3)n2)n1 [GSK257997]", 7),
    ("O=C(Nc1n[nH]c2cc(-c3cccc(F)c3F)ccc12)C1CC1 [SB-733894]", 18),
    ("CCCc1ccc(S(=O)(=O)NC2CCN(c3ccnc(Nc4ccc(F)cc4)n3)C2)cc1 (stereo not drawn) [GSK1379715]", 10),
    ("Cn1ccc2ncnc(Oc3ccc(NC(=O)Nc4ccccc4)cc3)c21", 0),
    ("Cc1c(Cn2ccn3c(=O)cc(N4CCOCC4)nc23)cccc1C(F)(F)F [GSK2289044]", 0),
    ("Nc1ncnc2[nH]c(-c3ccccc3)nc12 [AH5015]", 17),
    ("COc1ccc(Nc2nccc(NCCNC(=O)Nc3ccccc3F)n2)cc1 [GSK1379901]", 11),
    ("O=C(Nc1n[nH]c2nc(-c3nccs3)c(Br)cc12)C1CC1 [SB-742251]", 17),
    ("O=C(Nc1ccccc1)Nc1cccc(Oc2ccc3nccn3n2)c1", 0),
    ("Clc1cc(Cl)cc(Nc2ccnc(Nc3cc(Cl)cc(Cl)c3)n2)c1 [GSK175726]", 10),
    ("CC1=C(C(=O)Nc2cc3cn[nH]c3cc2F)C(c2ccc(C(F)(F)F)cc2)CC(=O)N1 (stereo not drawn) [GSK429286]", 13),
]

====

The following compounds are listed with their measured %Inh values.
# System: BRSK1
# experimentalSetup: concentration: 1 μM, replicates: in singlicate; n = 1

# compound, %Inh [%]
records = [
    ("O=C(Nc1ccccc1)Nc1cccc(Oc2ccc3nccn3n2)c1", 0),
    ("Clc1cc(Cl)cc(Nc2ccnc(Nc3cc(Cl)cc(Cl)c3)n2)c1", 0),
    ("C[C@@H]1CCCCN1c1cc(-c2ccc3c(N)n[nH]c3c2)nc(N)n1", 0),
    ("Cn1ccc2ncnc(Oc3cccc(C(=O)Nc4ccccc4)c3)c21", 0),
    ("CN1C(=O)C(Nc2ccc(Cl)c(C(=O)O)c2)=C(c2ccc(Cl)cc2)C1=O", 0),
    ("CN(C)CCN(C)C(=O)c1cc(-c2ccncc2)c(-c2ccc(Cl)c(O)c2)o1.Cl.Cl", 2),
    ("COc1ccc(CNC(=O)NC2CCN(c3ccnc(Nc4cc(OC)c(OC)c(OC)c4)n3)C2)cc1 (stereo not shown)", 0),
    ("Cc1ccccc1-n1cnc2c(N)ncnc21", 0),
    ("O=C(Nc1n[nH]c2nc(-c3nccs3)c(Br)cc12)C1CC1", 95.3),
    ("Cc1ccc(NC(=O)Nc2cc(C(C)(C)C)nn2-c2ccccc2)cc1", 100),
    ("Cl.O=C(Nc1cccc(-c2nn3ncccc3c2-c2ccnc(Nc3cccnc3)n2)c1)c1c(F)cccc1F", 8),
    ("O=C(O)COc1ncnc2cc(-c3ccc4[nH]ncc4c3)sc12", 5),
    ("COC(=O)c1c(-c2ccccc2)c2cc(OC)ccc2c(=O)n1Cc1ccccc1", 9),
    ("Fc1cc(Cl)ccc1Nc1ccnc2cc(-c3ccc(CN4CCCCC4)o3)ccc12", 2),
    ("O=c1cc(N2CCOCC2)nc2n(Cc3cccc(Cl)c3Cl)ccn12", 13),
    ("CCn1c(-c2ccccn2)nc2cnccc21", 100),
    ("O=C(Nc1ccc2c(c1)OCO2)NC1CCN(c2ccnc(Nc3ccc(F)cc3)n2)C1 (stereo not shown)", 0),
    ("CCn1c(-c2cccnc2O)nc2cnccc21", 0),
    ("COc1cccc(NC(=O)NC2CCN(c3ccnc(Nc4ccc(F)cc4)n3)C2)c1 (stereo not shown)", 0),
]

====

# System: MST2
# Construct: gene STK3
# experimentalSetup: concentration: 1 μM, replicates: in singlicate; n = 1
measuredProperty: %Inh (%)

# compound, unitName, measuredResult
measured = [
    ("CN1C(=O)C(Nc2ccc(Cl)c(C(=O)O)c2)=C(c2ccc(Cl)cc2)C1=O [SB-404290]", "%", 0),
    ("COc1ccc(C2=C(Nc3cccc(C(=O)O)c3)C(=O)NC2=O)cc1 [SB-390765]", "%", 0),
    ("Cc1ccccc1-n1cnc2c(N)ncnc21 [SKF-97510]", "%", 15),
    ("Cc1ccc(C(=O)Nc2ccc(Nc3ccnc4cc(-c5ccccn5)ccc34)cc2O)cc1.Cl [GW440146]", "%", 0),
    ("Cl.c1ccc(-c2n[nH]cc2-c2ccnc(-c3ccc(CN4CCOCC4)cc3)c2)nc1 [GW776245]", "%", 0),
]

====

The following compounds are listed with their measured %Inh values.
# Test system: RIOK1
# experimentalSetup: concentration: 1 μM, replicates: in singlicate; n = 1

# compound, measurementTarget, %Inh [%]
records = [
    ("Cc1cccc(-c2nc(-c3ccc(S(C)(=O)=O)cc3)sc2-c2ccnc(NCCc3ccccc3)c2)c1", "RIOK1", 17),
    ("COc1cc2nccc(Nc3ccc(NC(=O)c4ccc(C)cc4)c(O)c3)c2cc1OC.Cl [GW440132]", "RIOK1", 46),
    ("O=C1NC(=O)C(N2CCc3ccccc32)=C1c1ccccc1Cl [SB-373598]", "RIOK1", 19),
    ("COc1ccc(CNC(=O)NC2CCN(c3ccnc(Nc4cc(OC)c(OC)c(OC)c4)n3)C2)cc1 (stereo not drawn) [GSK1379748]", "RIOK1", 35),
    ("O=C(O)COc1ncnc2cc(-c3ccc4[nH]ncc4c3)sc12", "RIOK1", 0),
    ("CN(C)CCN(C)C(=O)c1cc(-c2ccncc2)c(-c2ccc(Cl)c(O)c2)o1.Cl.Cl [SB-710397]", "RIOK1", 37),
    ("Fc1cc(Cl)ccc1Nc1ccnc2cc(-c3ccc(CN4CCCCC4)o3)ccc12 [GW560116]", "RIOK1", 12),
    ("Cc1cc(N2Cc3ccccc3C2)nc(Nc2ccc(S(=O)(=O)N3CCOCC3)cc2)n1.Cl [GSK1669917]", "RIOK1", 24),
    ("CS(=O)(=O)c1ccc(-c2nc3n(c2-c2ccncc2)CCC3)cc1 [SKF-105942]", "RIOK1", 0),
]
